The measurements presented in this section are drawn from patent US8546381B2.

- assaySystem: human recombinant histamine H1 receptor (Homo sapiens, UniProt P35367)
- Construct: expressed in transfected cells; host or cells: CHO cells
- Sequence (P35367 whole entry): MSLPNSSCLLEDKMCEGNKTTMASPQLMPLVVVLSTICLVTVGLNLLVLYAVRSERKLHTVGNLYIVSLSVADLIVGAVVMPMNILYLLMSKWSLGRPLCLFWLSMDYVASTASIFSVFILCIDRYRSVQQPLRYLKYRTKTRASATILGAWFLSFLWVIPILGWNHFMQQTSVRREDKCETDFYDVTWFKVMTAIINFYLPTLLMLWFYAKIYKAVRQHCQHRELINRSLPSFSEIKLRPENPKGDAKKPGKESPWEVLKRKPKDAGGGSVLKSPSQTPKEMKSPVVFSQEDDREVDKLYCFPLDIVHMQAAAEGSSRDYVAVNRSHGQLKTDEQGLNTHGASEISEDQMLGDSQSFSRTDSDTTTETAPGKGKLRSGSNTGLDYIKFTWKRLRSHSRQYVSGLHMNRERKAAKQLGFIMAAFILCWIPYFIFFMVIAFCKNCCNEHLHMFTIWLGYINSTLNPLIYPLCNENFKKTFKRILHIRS
- testDescription: Histamine H1 radioligand binding ([3H]Pyrilamine)
- cond: compound at 1 μM; inhibition of specific [3H]Pyrilamine binding; read-out: Histamine Binding (1 μM) H1, Percentage Inhibition
// values below are reported inhibition at 1 µM

[
  {
    "compound": "C/C(=C\\n1c2c(c3cc(Cl)ccc31)C1CCC(C2)N1C)c1cccnc1 (stereo not drawn) [Compound 128]",
    "assaySystem": "human recombinant histamine H1 receptor (Homo sapiens, UniProt P35367)",
    "readingUnit": "%",
    "inhibition at 1 µM": 15
  },
  {
    "compound": "CN1[C@@H]2CC[C@H]1c1c(n(CC(C)(O)c3ccc(F)cc3)c3ccccc13)C2 (stereo partly drawn) [Compound 99]",
    "assaySystem": "human recombinant histamine H1 receptor (Homo sapiens, UniProt P35367)",
    "readingUnit": "%",
    "inhibition at 1 µM": 21
  },
  {
    "compound": "CN1[C@H]2CC[C@@H]1c1c(n(CCc3ccc(F)cc3)c3ccc(F)cc13)C2 [Compound 95]",
    "assaySystem": "human recombinant histamine H1 receptor (Homo sapiens, UniProt P35367)",
    "readingUnit": "%",
    "inhibition at 1 µM": 55
  }
]
